FYI, the data here is from ChEMBL document CHEMBL4800728.

Molecular target: PXR (nuclear receptor subfamily 1 group I member 2) (Homo sapiens)
Sequence (O75469 whole entry): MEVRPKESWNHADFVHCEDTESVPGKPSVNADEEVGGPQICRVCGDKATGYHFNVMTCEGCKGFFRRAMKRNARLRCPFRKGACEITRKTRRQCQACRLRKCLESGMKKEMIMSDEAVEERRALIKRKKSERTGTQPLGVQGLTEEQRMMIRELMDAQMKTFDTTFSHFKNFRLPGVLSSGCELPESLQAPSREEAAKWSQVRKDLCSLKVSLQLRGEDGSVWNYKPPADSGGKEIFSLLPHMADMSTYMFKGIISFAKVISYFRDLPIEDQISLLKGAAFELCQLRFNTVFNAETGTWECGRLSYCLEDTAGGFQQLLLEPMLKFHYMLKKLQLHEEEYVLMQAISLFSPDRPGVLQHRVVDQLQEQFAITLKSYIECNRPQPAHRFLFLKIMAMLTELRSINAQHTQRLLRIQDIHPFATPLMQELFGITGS
Experiment: PXR Indigo Bioscience nuclear receptor screen
Conditions: compound concentration 0.3 uM
experimental.readout: inhibition at 0.3 µM

get_value(item= COc1nc2ccc([C@@](O)(c3ccccc3)C3CCN(C(C)=O)CC3)cc2c(Cl)c1Cc1ccc(-n2cccn2)cc1 , readout=inhibition at 0.3 µM) returns -7.63% (not active)

====

Target: Peroxisome proliferator-activated receptor delta (Homo sapiens)
Sequence (Q03181 whole entry): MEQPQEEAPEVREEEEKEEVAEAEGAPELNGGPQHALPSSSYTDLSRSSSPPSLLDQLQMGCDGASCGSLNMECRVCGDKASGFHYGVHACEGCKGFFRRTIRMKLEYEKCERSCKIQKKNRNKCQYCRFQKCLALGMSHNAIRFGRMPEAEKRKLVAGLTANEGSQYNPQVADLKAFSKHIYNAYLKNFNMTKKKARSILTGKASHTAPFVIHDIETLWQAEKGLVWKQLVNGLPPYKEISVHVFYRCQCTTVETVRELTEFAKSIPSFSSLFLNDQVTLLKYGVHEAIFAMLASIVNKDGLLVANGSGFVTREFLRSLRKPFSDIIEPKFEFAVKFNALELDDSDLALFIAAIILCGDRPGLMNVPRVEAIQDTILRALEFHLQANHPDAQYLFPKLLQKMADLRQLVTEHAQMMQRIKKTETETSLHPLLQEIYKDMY
Experiment: PPARdelta In-house nuclear receptor screen
experimental.readout: IC50 (µM)
Give bare numbers, in µM.

get_value(item= COc1nc2ccc([C@@](O)(c3ccccc3)C3CCN(C(C)=O)CC3)cc2c(Cl)c1Cc1ccc(-n2cccn2)cc1 , readout=IC50) returns 5.9
